# TARGET SYSTEM: T1, human CD3 on CD3-expressing cells (Jurkat, human T cells) (human, UniProt P07766 23-207; P04234 22-171)
# T1 construct: On cells CD3 stands within the T cell receptor complex (also gamma and zeta chains); also called human CD3 expressing Jurkat cells
# T1 sequence (P07766 23-207 limits assumed, chain 1 of 2): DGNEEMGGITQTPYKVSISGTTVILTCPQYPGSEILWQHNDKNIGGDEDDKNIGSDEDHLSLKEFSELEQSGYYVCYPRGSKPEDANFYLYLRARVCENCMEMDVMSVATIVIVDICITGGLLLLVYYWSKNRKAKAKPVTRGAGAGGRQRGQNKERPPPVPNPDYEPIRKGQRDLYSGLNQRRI
# T1 sequence (P04234 22-171 limits assumed, chain 2 of 2): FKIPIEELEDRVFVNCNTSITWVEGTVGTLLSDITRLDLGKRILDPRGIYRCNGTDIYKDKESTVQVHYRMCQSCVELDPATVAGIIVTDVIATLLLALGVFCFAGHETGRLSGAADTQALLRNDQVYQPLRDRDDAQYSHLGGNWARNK
# PROTOCOL: FACS on Jurkat cells
ENDPOINT: EC50

Short answer for BSPSMA/CD3-004 (bispecific antibody, IgG4, V domains shown, modified (chimeric) IgG4 Fc domain; also called PSMA-VH-11810 x CD3-VH-G5) VH 1: QVQLVESGGGVVQPGRSLRLSCAASGFTFSSYGMHWVRQAPGKGLEWVAVISYAGNNKYYADSVKGRFTVSRDNSKKTLYLQMNSLRSEDTAVYYCAKDSYYDFLTDPDVLDIWGQGTMVTVSS VH 2: EVQLVESGGGLVQPGRSLRLSCAASGFTFDDYSMHWVRQAPGKGLEWVSGISWNSGSIGYADSVKGRFTISRDNAKNSLYLQMNSLRAEDTALYYCAKDGSGYGKFYYYGMDVWGQGTTVTVSS VL: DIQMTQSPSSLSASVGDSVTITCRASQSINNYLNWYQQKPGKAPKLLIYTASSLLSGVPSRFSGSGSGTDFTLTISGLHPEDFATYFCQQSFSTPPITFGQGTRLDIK : EC50 was ~1000 nM
